In this section, each of the compounds is paired with its reported normalized growth.
# assay text: chemical genetic growth profiling, strain panel (AID 1159580);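 further: tested at 20 µM; growth read once vehicle control cultures reached saturation at 30 °C; 1 = growth at the plate median or of vehicle wells; lower values mean less growth of the strain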
# reported conditions: S. cerevisiae deletion strains, growth OD, locus YDR477W, strain SNF1, active compounds read low
Hit rate of the full screen: of about 5,500 compounds, about 2,000 (36%) were called active. Roughly 18% stayed inconclusive and do not appear here. The list shows a part of the results.
recorded metric: normalized growth

compound=CC1(C)CC(=O)C=C(Sc2nc3ccccc3o2)C1 recorded_number=0.949
compound="CC(C)(C)c1ccc(C(=N)SC(C(=O)C(F)(F)F)c2ccccc2)cc1 (stereo unspecified)" recorded_number=0.865
compound=Cc1cc(C(=O)NNS(=O)(=O)c2ccc(F)c(Cl)c2)nn1-c1c(Cl)cc(Cl)cc1Cl recorded_number=1.03
compound=O=C(c1csc(-c2ccc(Cl)cc2)c1)N1CCCCC1 recorded_number=0.851
compound=O=C(Nc1cccc(C(F)(F)F)c1)c1cncc(C#Cc2ccccc2)c1 recorded_number=0.929
compound=Cc1ccc(S(=O)(=O)NC(=O)Nc2ccc(Sc3ccccc3)nc2Sc2ccccc2)cc1 recorded_number=0.936

----------
# assay text: chemical genetic growth profiling, strain panel (AID 1159580);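 further: tested at 20 µM; growth read once vehicle control cultures reached saturation at 30 °C; 1 = growth at the plate median or of vehicle wells; lower values mean less growth of the strain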
# reported conditions: S. cerevisiae deletion strains, growth OD, locus YNL183C, strain NPR1, active compounds read low
Among all 5,500 compounds or so, about 2,000 (36%) were called active. Roughly 18% stayed inconclusive and do not appear here. Some of the results follow.
recorded metric: normalized growth

molecule=O=C(/C=C/c1ccc2c(c1)OCO2)Nc1ccc(Br)cc1 recorded_metric="normalized growth" recorded_number=0.889
molecule=O=C(Oc1cc(O)cc2c1C[C@@H](OC(=O)c1cc(O)c(O)c(O)c1)[C@@H](c1cc(O)c(O)c(O)c1)O2)c1cc(O)c(O)c(O)c1 recorded_metric="normalized growth" recorded_number=0.943
molecule=CN(C)CCN(Cc1cccs1)c1ccccn1 recorded_metric="normalized growth" recorded_number=0.886
molecule=O=C1NCC2(CCN(CCc3ccccc3)CC2)O1 recorded_metric="normalized growth" recorded_number=0.904
molecule="CC1CCc2cc(F)cc3c(=O)c(C(=O)O)cn1c23 (stereo not given)" recorded_metric="normalized growth" recorded_number=0.904
molecule=CCCCNC(=O)NS(=O)(=O)c1ccc(C)cc1 recorded_metric="normalized growth" recorded_number=0.912
molecule="CC[C@@H](C(=O)C(C)[C@@H](O)[C@H](C)CCc1ccc(C)c(O)c1C(=O)O)C1OC(CC)(C2CC[C@](O)(CC)[C@H](C)O2)C[C@@H]1C (stereo not given in full)" recorded_metric="normalized growth" recorded_number=0.923
molecule=COc1ccc(CN(CCN(C)C)c2ccccn2)cc1 recorded_metric="normalized growth" recorded_number=0.991
molecule="CC1COc2c(N3CCN(C)CC3)c(F)cc3c(=O)c(C(=O)O)cn1c23 (stereo not given)" recorded_metric="normalized growth" recorded_number=0.928
molecule=Cc1nn(C)c(C(=O)Sc2ccc(OC(F)(F)F)cc2)c1[N+](=O)[O-] recorded_metric="normalized growth" recorded_number=1.04
molecule="CCn1cc(C(=O)O)c(=O)c2cc(F)c(N3CCNC(C)C3)c(F)c21 (stereo not given)" recorded_metric="normalized growth" recorded_number=0.962
molecule=CN(C)CCN(Cc1ccccc1)c1ccccn1 recorded_metric="normalized growth" recorded_number=0.942
molecule=COc1cccc(C2CCN(C(=O)c3cccc4ccccc34)CC2)c1 recorded_metric="normalized growth" recorded_number=0.963
molecule=Cc1ccc(S(=O)(=O)NC(=O)NN2CCCCCC2)cc1 recorded_metric="normalized growth" recorded_number=0.946
molecule="Cc1ccccc1C(OCCN(C)C)c1ccccc1 (stereo not given)" recorded_metric="normalized growth" recorded_number=0.945
